# MEASURED_ON: His-tagged recombinant human MER cytoplasmic domain (Homo sapiens)
# Construct: His-tagged recombinant human MER cytoplasmic domain
# Sequence (Q12866 527-999 limits assumed): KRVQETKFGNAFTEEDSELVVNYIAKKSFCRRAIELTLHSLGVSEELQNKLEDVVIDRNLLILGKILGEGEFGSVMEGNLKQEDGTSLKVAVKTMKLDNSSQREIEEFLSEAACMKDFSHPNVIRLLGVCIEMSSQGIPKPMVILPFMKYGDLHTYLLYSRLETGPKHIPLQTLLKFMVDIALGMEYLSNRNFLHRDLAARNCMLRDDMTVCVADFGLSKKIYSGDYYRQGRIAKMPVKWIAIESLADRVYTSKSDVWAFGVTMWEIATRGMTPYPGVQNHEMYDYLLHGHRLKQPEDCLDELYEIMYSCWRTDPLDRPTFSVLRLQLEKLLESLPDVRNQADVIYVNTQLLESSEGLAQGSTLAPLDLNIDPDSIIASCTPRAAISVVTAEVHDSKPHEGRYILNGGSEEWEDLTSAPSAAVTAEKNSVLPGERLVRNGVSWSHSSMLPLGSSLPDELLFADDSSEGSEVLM
# TEST_DESCRIPTION: MER Enzyme Assay (LanthaScreen Eu Kinase Binding)
# SETTINGS: averaged IC50; MER 5 nM; 60-minute incubation at 22° C.; TR-FRET
# Protocol: Compounds disclosed herein were screened for their ability to inhibit AXL kinase using Invitrogen's LanthaScreen™Eu Kinase Binding technology. […] After a 60-minute incubation at 22° C., the reaction was measured using a PerkinElmer EnVision multimode plate reader via TR-FRET dual wavelength detection, and the percent of control (POC) was calculated using a ratiometric emission factor. […]
METRIC: IC50 (nM)

                                   compound  numeric_value
0  CCc1c(-c2ccc(F)cc2)c(=O)c(C(=O)Nc2ccc(Oc3ccnc4cc(OC)c(OC)cc34)cn2)cn1C(C)C [Example 29]              3

A: COc1cc2nccc(Oc3ccc(NC(=O)c4cn(CC(=O)N(C)C)cc(-c5ccc(F)cc5)c4=O)nc3)c2cc1OC [Example 23]
B: CCn1cc(C(=O)Nc2ccc(Oc3ccnc4ccc(OC)cc34)cn2)c(=O)c(-c2ccc(F)cc2)c1 [Example 39]
C: COc1cc2nccc(Oc3ccc(NC(=O)c4cn(CCN(C)C)cc(-c5ccc(F)cc5)c4=O)nc3)c2cc1OC [Example 46]
## Input Order by IC50, ascending. Provide the labels, sequenced as the question asks.
## Output C, A, B
(C: 2 nM, A: 3 nM, B: 16 nM)

----------
# MEASURED_ON: human MET kinase Y1230S (Homo sapiens, UniProt P08581, Y1230S)
# Construct: GST-tagged recombinant human MET kinase domain
# Sequence (P08581 1078-1345 Y1230S): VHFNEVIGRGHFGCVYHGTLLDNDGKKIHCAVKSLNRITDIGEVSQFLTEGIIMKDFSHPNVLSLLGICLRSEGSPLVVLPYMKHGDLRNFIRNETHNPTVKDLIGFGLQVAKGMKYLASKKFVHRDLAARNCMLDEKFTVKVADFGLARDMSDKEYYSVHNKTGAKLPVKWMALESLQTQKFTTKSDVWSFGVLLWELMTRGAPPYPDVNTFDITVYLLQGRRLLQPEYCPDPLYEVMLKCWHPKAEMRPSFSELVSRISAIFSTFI
# TEST_DESCRIPTION: c-Met Enzyme Assay, Y1230S mutant
# SETTINGS: averaged IC50; Y1230S 8 nM; 60-minute incubation at 22° C.; read-out: Y1230 S IC50
# Experimental: The affinity of compound binding to wild type and mutant human MET kinases was measured using Invitrogen's LanthaScreen™ Eu Kinase Binding technology. […] After a 60-minute incubation at 22° C., the reaction was measured using a PerkinElmer EnVision multimode plate reader via TR-FRET dual wavelength detection, and the percent of control (POC) calculated using a ratiometric emission factor. […]
METRIC: IC50 (nM)

Example compounds with recorded IC50:
                         structure_notation                               measured_on  numeric_value
0  CCn1cc(C(=O)Nc2ccc(Oc3ccnc4cc(OC)c(OC)cc34)cn2)c(=O)c(-c2ccc(F)cc2)c1  human MET kinase Y1230S (Homo sapiens, UniProt P08581, Y1230S)            4.7
1  CCOc1ccc2nccc(Oc3ccc(NC(=O)c4cn(C(C)C)cc(-c5ccc(F)cc5)c4=O)nc3)c2c1  human MET kinase Y1230S (Homo sapiens, UniProt P08581, Y1230S)             44

I: CCCn1cc(C(=O)Nc2ccc(Oc3ccnc4cc(OC)c(OC)cc34)cn2)c(=O)c(-c2ccc(F)cc2)c1
II: CCn1cc(C(=O)Nc2ccc(Oc3ccnc4ccc(OC)cc34)cn2)c(=O)c(-c2ccc(F)cc2)c1
III: COc1cc2nccc(Oc3ccc(NC(=O)c4cn(CCC(C)C)cc(-c5ccc(F)cc5)c4=O)nc3)c2cc1OC
## Input In this exercise, place the 3 compounds in ascending sequence of their recorded IC50. Use the labels to give the requested order.
## Output I, III, II
